Values were extracted from patent US9896487B2.

- Test system: Aβ, IAPP and TTR amyloidosis / toxic oligomer
- test-protocol: Inhibitory activity summary: inhibition of aggregation and/or binding of toxic oligomer
- Type: biochemical
[ ]: non-standard residue; d: D form.
test-readout: Inhibits Aggregation and/or binds oligomer?

Ac-RGEMNLSWMNEYSGWTMNLKMGR-NH2 (not fully specified (residues 4, 6, 8, 16, 18, 20); printed as Ac-RGEMNLSWMNEYSGWTMNLKMGR-NH2) [peptide #20, all L-amino acid version of ldas90]    no
Ac-AQQiEcItNVWDKEItMyFnVSE-NH2 (Ac-AQQ[dI]E[dC]L[dT]NVWDKEL[dT]M[dY]F[dN]VSE-NH2; not fully specified) [peptide #11]    yes
Ac-RGEaWmYiKNNLSETmMsNmWGR-NH2 [peptide #12]    yes
Ac-WRPwAiDgMNTBKQRkAsVyLQP-NH2 [peptide #13]    yes
